Value source: patent US20240209076A1

- measuredTarget: T1, recombinant human IL-6 (human, UniProt P05231 30-212)
- T1 construct: Flowed in solution over the captured antibodies
- T1 sequence (P05231 30-212 limits assumed): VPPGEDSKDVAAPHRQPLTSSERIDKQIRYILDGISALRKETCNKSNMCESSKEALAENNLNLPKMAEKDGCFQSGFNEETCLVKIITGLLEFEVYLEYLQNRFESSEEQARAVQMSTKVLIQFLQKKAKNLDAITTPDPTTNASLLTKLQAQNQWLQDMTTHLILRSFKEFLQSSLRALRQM
- protocol: SPR (Biacore), purified IgG on Protein A, 37 C
# key: entry, value: Kd
measuredQuantity: Kd (nM)

>>> measurement("anti-IL-6 antibody, heavy chain I51R, light chain WT (antibody, IgG1, V domains shown, Full IgG1 tested; V domains derived as in m2) VH: EVQLVESGGGLVQPGGSLRLSCAASGFTFSPFAMSWVRQAPGKGLEWVAKRSPGGSWTYYSDTVTGRFTFSLDTSKSTAYLQMNSLRAEDTAVYYCARQLWGYYALDIWGQGTLVTVSS VL: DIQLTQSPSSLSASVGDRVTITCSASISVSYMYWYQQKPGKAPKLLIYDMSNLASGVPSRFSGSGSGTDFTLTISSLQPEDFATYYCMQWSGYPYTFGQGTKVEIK")
0.505
>>> measurement("anti-IL-6 antibody, heavy chain G26S, light chain WT (antibody, IgG1, V domains shown, Full IgG1 tested; V domains derived as in m2) VH: EVQLVESGGGLVQPGGSLRLSCAASSFTFSPFAMSWVRQAPGKGLEWVAKISPGGSWTYYSDTVTGRFTFSLDTSKSTAYLQMNSLRAEDTAVYYCARQLWGYYALDIWGQGTLVTVSS VL: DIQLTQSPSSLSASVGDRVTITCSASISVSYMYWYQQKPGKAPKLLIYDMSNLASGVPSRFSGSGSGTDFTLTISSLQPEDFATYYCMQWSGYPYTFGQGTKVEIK")
0.463
